Taken from paper PMC8794802.

- assay-target: T1, Pus7 D256A/H161A (Saccharomyces cerevisiae, UniProt Q08647 1-676, H161A;D256A)
- T1 sequence: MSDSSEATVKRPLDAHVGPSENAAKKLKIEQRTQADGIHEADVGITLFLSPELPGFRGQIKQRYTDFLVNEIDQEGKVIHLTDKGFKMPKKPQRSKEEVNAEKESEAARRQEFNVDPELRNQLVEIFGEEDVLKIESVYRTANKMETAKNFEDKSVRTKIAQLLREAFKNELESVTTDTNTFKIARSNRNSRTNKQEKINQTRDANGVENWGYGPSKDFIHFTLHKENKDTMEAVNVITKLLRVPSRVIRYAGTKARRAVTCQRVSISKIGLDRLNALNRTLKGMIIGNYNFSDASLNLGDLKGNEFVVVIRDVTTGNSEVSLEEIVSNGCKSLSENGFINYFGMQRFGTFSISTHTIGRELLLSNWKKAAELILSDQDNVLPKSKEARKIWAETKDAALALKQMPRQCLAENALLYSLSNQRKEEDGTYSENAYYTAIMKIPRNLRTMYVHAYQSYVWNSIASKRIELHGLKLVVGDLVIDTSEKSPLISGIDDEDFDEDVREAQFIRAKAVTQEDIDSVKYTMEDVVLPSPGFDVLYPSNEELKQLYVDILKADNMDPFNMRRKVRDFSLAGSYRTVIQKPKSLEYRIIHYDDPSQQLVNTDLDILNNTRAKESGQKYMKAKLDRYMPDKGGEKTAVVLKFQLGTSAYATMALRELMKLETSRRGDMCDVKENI
- assay-overview: EMSA
pKd: −log10 of the molar value.

>  <binder>
CDC8 (cdc8-FL, 61 nt) (ssRNA) RNA: GUCAAUCACGAUUGUAGACGUUACUAAUAAGGGCAUUCAGGAAGUUGAAGCGCUUAUUUGG

>  <pKd>
6.77

$$$$
